# Tested on: HOP-62 NSCLC
# assay.explanation: NCI-60 one-dose screen, 48 h
# cond: 10 µM unless noted
This is part of a sample that, as a whole, favours compounds with a hit. Of some 83,000 tested, about 20% had one in any assay. Activity calls are given as the source filed them. How the source made its calls: active means growth percent below 10; inactive means the rest.
Outcome codes: active, inactive

- molecule: "N#Cc1ccc(OC(=O)Nc2cc(Cl)cc(Cl)c2)cc1"
  group: "active"
- molecule: "Cc1nc(O)cc(=O)[nH]1"
  group: "inactive"
- molecule: "Cc1[nH]n(-c2ccccc2)c(=O)c1C=NC(=S)C(N)=S"
  group: "inactive"
- molecule: "CCNc1ncnc2[nH]ncc12"
  group: "inactive"
- molecule: "CCN(CC)CCN1CNC(=S)NC1"
  group: "inactive"
- molecule: "CCN(CC)c1ccc2nc3ccc(N=Nc4ccc(N(C)C)cc4)cc3[n+](-c3ccccc3)c2c1"
  group: "active"
- molecule: "C=CC(=O)OC1CCC(C(C)(C)CC)CC1 (stereo not drawn)"
  group: "inactive"
- molecule: "COCC(N)=O"
  group: "inactive"
- molecule: "N#CCCN1C(=O)CCC1C(=O)O (stereo not drawn)"
  group: "inactive"
- molecule: "Cc1onc(-c2c(F)cccc2Cl)c1-c1ncc(-c2ccc(Br)cc2)o1"
  group: "inactive"
- molecule: "Nc1cccc2cccc(O)c12"
  group: "inactive"
- molecule: "O=S(=O)(O)c1ccc(O)c(C2CCCCC2)c1"
  group: "inactive"
- molecule: "CC1(c2ccccc2)CO1 (stereo not drawn)"
  group: "inactive"
- molecule: "CCNCC(C)(C)O"
  group: "inactive"
- molecule: "CCCCCC/C=C\\CCCCCCCCCc1cc(O)cc(OC)c1O"
  group: "inactive"
- molecule: "NNC(=O)N/N=C1\\C(=O)N(c2nccs2)C(=O)C(=O)C1c1nc2ccccc2s1 (stereo not drawn)"
  group: "inactive"
- molecule: "OCCNc1ccccc1"
  group: "inactive"
- molecule: "CCCCCCCCCCCCSC1=C(Cl)C(=O)C(OC)=C(OC)C1=O"
  group: "inactive"
- molecule: "O=S(=O)(c1ccc(NC(=S)NCc2cccnc2)cc1)N1CCCCC1"
  group: "inactive"
- molecule: "CC(C)C(C)(C)C(=O)C(C)(C)C(C)(C)C"
  group: "inactive"
- molecule: "Cn1c(=O)[nH]c2ccccc2c1=O"
  group: "inactive"
- molecule: "CCOC(=O)c1ccc(NC(C)=O)o1"
  group: "inactive"
- molecule: "Cc1cc2c(C(C)C)c(O)c(O)c(C=Nc3ccccc3[N+](=O)[O-])c2c(O)c1-c1c(C)cc2c(C(C)C)c(O)c(O)c(C=Nc3ccccc3[N+](=O)[O-])c2c1O"
  group: "inactive"
- molecule: "Nc1nnc2cc(F)ccc2n1"
  group: "inactive"
- molecule: "Nc1ncnc2c1ncn2C1OC(CO)C2OC21 (stereo not drawn)"
  group: "inactive"
- molecule: "OCc1cccnc1"
  group: "inactive"
- molecule: "C=CCNC(=S)N/C=C(/C(=O)c1ccccc1)c1ccccc1"
  group: "inactive"
- molecule: "O=C(c1ccccc1)c1ccc(-c2ccc(O)cc2)cc1"
  group: "inactive"
- molecule: "C=CC1=NC(C)(C)CC(C)O1 (stereo not drawn)"
  group: "inactive"
- molecule: "CC(=O)Nc1ncc(S(=O)(=O)c2ccc([N+](=O)[O-])cc2)s1"
  group: "inactive"
- molecule: "CN(C)c1ccc(O)c2c1CC1CC3C(N(C)C)C(=O)C(C(N)=O)=C(O)C3(O)C(=O)C1=C2O (stereo not drawn)"
  group: "inactive"
- molecule: "Cc1c(Cl)cccc1N=C=S"
  group: "inactive"
- molecule: "CC(=O)Nc1ccc(C(=O)c2ccc(S(=O)(=O)Nc3ccccc3)cc2)cc1"
  group: "inactive"
- molecule: "C1=NCCc2ccccc21"
  group: "inactive"
- molecule: "Cc1ccc(C2CCCCC2)cc1Br"
  group: "inactive"
- molecule: "CC(=O)Oc1c(Cl)cccc1-c1ccccc1"
  group: "inactive"
- molecule: "COc1cc(C(=O)N2CCN(c3ccccc3)CC2)c2ccccc2n1"
  group: "inactive"
- molecule: "CCN(C(C)=O)c1ccc([N+](=O)[O-])cc1"
  group: "inactive"
- molecule: "OC1Cc2ccccc2C1"
  group: "inactive"
- molecule: "COc1ccc(C(=O)/C(=N/Nc2ccccc2)c2ccc(OC)cc2)cc1"
  group: "inactive"
- molecule: "O=C(O)Cc1ccc(Cl)cc1"
  group: "inactive"
- molecule: "CC(=O)CSc1ncnc2nc[nH]c12"
  group: "inactive"
- molecule: "O=C1C=C(c2ccccc2)C(O)(c2ccccc2)C1 (stereo not drawn)"
  group: "inactive"
- molecule: "OCC(O)COc1ccc(Cl)cc1Cl (stereo not drawn)"
  group: "inactive"
- molecule: "CC(C)(C)NCCC(O)c1cc(C(F)(F)F)nc2c(C(F)(F)F)cccc12 (stereo not drawn)"
  group: "inactive"
- molecule: "CC(=O)/C(C)=N\\OC(=O)Nc1ccccc1"
  group: "inactive"
- molecule: "c1ccc2[nH]c(Cc3nc4ccccc4[nH]3)nc2c1"
  group: "inactive"
- molecule: "O=C(OCC1CCCO1)c1ccc([N+](=O)[O-])cc1 (stereo not drawn)"
  group: "inactive"
- molecule: "COc1cc(CC#N)c([N+](=O)[O-])cc1OC"
  group: "inactive"
- molecule: "O=C(OCc1ccccc1)n1nnc2ccccc21"
  group: "inactive"
- molecule: "CCOC(=O)CNC"
  group: "inactive"
- molecule: "Clc1ccc(-c2noc(/C=C\\c3ccccc3)n2)cc1"
  group: "inactive"
- molecule: "CC(=O)NC(CCc1ccc(Cl)c(Cl)c1)c1cccc(O)c(=O)c1 (stereo not drawn)"
  group: "inactive"

* * *

Below, each entry is listed with its recorded growth.
# System: MCF7 breast
# assay.explanation: NCI-60 one-dose screen, 48 h (100 = growth as untreated, 0 = no growth, -100 = all killed)
# cond: 10 µM unless noted
Compounds without any hit were thinned out: in the full panel of roughly 83,000, 20% have a hit.
assay.metric: growth (%)

- compound: "O=CNCCc1ccccc1"
  tested.on: "MCF7 breast"
  readout.unit: "%"
  test.value: 95.3
- compound: "CC(C)(C)NCCC(O)c1cc(C(F)(F)F)nc2c(C(F)(F)F)cccc12 (centres undefined)"
  tested.on: "MCF7 breast"
  readout.unit: "%"
  test.value: 92.6
- compound: "CC(C)N1CC(=O)N2CSCC2C1=O (centres undefined)"
  tested.on: "MCF7 breast"
  readout.unit: "%"
  test.value: 98.7
- compound: "Cc1[nH]nc(C(N)=O)c1[N+](=O)[O-]"
  tested.on: "MCF7 breast"
  readout.unit: "%"
  test.value: 97.4
- compound: "COc1ccc(C(=O)C(=O)c2ccccc2)cc1"
  tested.on: "MCF7 breast"
  readout.unit: "%"
  test.value: 103
- compound: "Cc1ccc(S(N)(=O)=O)cc1Cl"
  tested.on: "MCF7 breast"
  readout.unit: "%"
  test.value: 96.3
- compound: "CC(C)c1ccccc1NC(=O)N1CCC(C(C)C)CC1"
  tested.on: "MCF7 breast"
  readout.unit: "%"
  test.value: 97.5
- compound: "CCOC(=O)CSCCC#N"
  tested.on: "MCF7 breast"
  readout.unit: "%"
  test.value: 93.6
- compound: "C#CC(O)c1ccccc1 (centres undefined)"
  tested.on: "MCF7 breast"
  readout.unit: "%"
  test.value: 99.1
- compound: "Cc1ccc(N2C(=O)c3cccc4c(N)c(S(=O)(=O)O)cc(c34)C2=O)cc1"
  tested.on: "MCF7 breast"
  readout.unit: "%"
  test.value: 110
- compound: "C=CC(C)C(C)(C)O (centres undefined)"
  tested.on: "MCF7 breast"
  readout.unit: "%"
  test.value: 101
- compound: "COc1cccc(C(=O)O)c1OC"
  tested.on: "MCF7 breast"
  readout.unit: "%"
  test.value: 87.2
- compound: "N#Cc1ccc2nc[nH]c2c1"
  tested.on: "MCF7 breast"
  readout.unit: "%"
  test.value: 96.8
- compound: "Cc1ccnc(Nc2nc3ccccc3[nH]2)n1"
  tested.on: "MCF7 breast"
  readout.unit: "%"
  test.value: 98.8

* * *

# Test system: RXF 393 renal
# assay.explanation: NCI-60 one-dose screen, 48 h (100 = growth as untreated, 0 = no growth, -100 = all killed)
# cond: 10 µM unless noted
The panel holds about 83,000 compounds, 20% with a hit somewhere; the sample as a whole holds those more often.
Below, each entry is listed with its recorded growth.
assay.metric: growth (%)

- compound: "COC(CCCl)c1ccc(Cl)cc1 (centres undefined)"
  assay.metric: "growth"
  readout.unit: "%"
  test.value: 113
- compound: "Nc1ncnc(Nc2ccccc2)n1"
  assay.metric: "growth"
  readout.unit: "%"
  test.value: 118
- compound: "NC(=O)c1cc2c3ccccc3ccn2c1-c1ccccc1"
  assay.metric: "growth"
  readout.unit: "%"
  test.value: 25.5
- compound: "O=Cc1ccc(Cl)c(Cl)c1"
  assay.metric: "growth"
  readout.unit: "%"
  test.value: 94.3
- compound: "C/C(=N\\Nc1ccc([N+](=O)[O-])cc1[N+](=O)[O-])c1ccc(Br)cc1"
  assay.metric: "growth"
  readout.unit: "%"
  test.value: 106
- compound: "O=C(O)CSCC(=O)Nc1cc(C(F)(F)F)ccc1Cl"
  assay.metric: "growth"
  readout.unit: "%"
  test.value: 128
- compound: "Nc1cc2ccccc2c(O)c1O"
  assay.metric: "growth"
  readout.unit: "%"
  test.value: -52.5
- compound: "O=C(CCl)Oc1ccc([N+](=O)[O-])cc1"
  assay.metric: "growth"
  readout.unit: "%"
  test.value: 99.5
- compound: "O=c1cc(Cl)nc2ccccn12"
  assay.metric: "growth"
  readout.unit: "%"
  test.value: 106
- compound: "O=C1NC(=O)C(c2ccccc2)O1 (centres undefined)"
  assay.metric: "growth"
  readout.unit: "%"
  test.value: 121
- compound: "C1CCc2onc(-c3noc4c3CCCCC4)c2CC1"
  assay.metric: "growth"
  readout.unit: "%"
  test.value: 139
- compound: "Cc1ccccc1CC(N)C(=O)O (centres undefined)"
  assay.metric: "growth"
  readout.unit: "%"
  test.value: 137
- compound: "O=C(O)Cc1ccccn1"
  assay.metric: "growth"
  readout.unit: "%"
  test.value: 133
- compound: "CS(=O)CC(=N\\O)/C(CS(C)=O)=N\\O (centres undefined)"
  assay.metric: "growth"
  readout.unit: "%"
  test.value: 114
- compound: "O=C(Nc1cccc(Cl)c1)c1ccc(Cl)cc1Cl"
  assay.metric: "growth"
  readout.unit: "%"
  test.value: 110
- compound: "Ic1cccs1"
  assay.metric: "growth"
  readout.unit: "%"
  test.value: 119
- compound: "CC1(C)OC2C(CO)OC(n3ccc(=O)[nH]c3=O)C2O1 (centres undefined)"
  assay.metric: "growth"
  readout.unit: "%"
  test.value: 113
- compound: "COc1nc2ccccc2s1"
  assay.metric: "growth"
  readout.unit: "%"
  test.value: 118
- compound: "Nc1ncnc2c1ncn2C1OC(CO)C2OC21 (centres undefined)"
  assay.metric: "growth"
  readout.unit: "%"
  test.value: 103
- compound: "Cc1ccc(N)c(S(=O)(=O)O)c1"
  assay.metric: "growth"
  readout.unit: "%"
  test.value: 108
- compound: "COC1OC(CO)C(OC)C(O)C1O (centres undefined)"
  assay.metric: "growth"
  readout.unit: "%"
  test.value: 99.4
- compound: "Nc1nc(N)nc(N2CCCCC2)n1"
  assay.metric: "growth"
  readout.unit: "%"
  test.value: 105
- compound: "CC(O)C(F)(F)C(F)(F)C(F)(F)F (centres undefined)"
  assay.metric: "growth"
  readout.unit: "%"
  test.value: 103
- compound: "Cc1cc(C)cc(OCC(=O)O)c1"
  assay.metric: "growth"
  readout.unit: "%"
  test.value: 135
- compound: "COC1OC(C(COC(C)=O)OC(C)=O)C(OC(C)=O)C(OC(C)=O)C1OC(C)=O (centres undefined)"
  assay.metric: "growth"
  readout.unit: "%"
  test.value: 115
- compound: "CC(=O)Oc1c(Cl)cccc1-c1ccccc1"
  assay.metric: "growth"
  readout.unit: "%"
  test.value: 110
- compound: "C=CCc1cc(OC)c(O)c(OC)c1"
  assay.metric: "growth"
  readout.unit: "%"
  test.value: 119
- compound: "COc1ccc(C2CCCCC2=O)cc1 (centres undefined)"
  assay.metric: "growth"
  readout.unit: "%"
  test.value: 110
- compound: "BrCc1cccc(C[P+](c2ccccc2)(c2ccccc2)c2ccccc2)c1"
  assay.metric: "growth"
  readout.unit: "%"
  test.value: 84.4
